Quick list: optical density per entry.
Target: T1, Human ACVR2A (human, UniProt P27037 20-135, limits assumed); further: test concentration or dose not given here
T1 construct: also called activin receptor, type II A
T1 sequence (P27037 20-135 limits assumed): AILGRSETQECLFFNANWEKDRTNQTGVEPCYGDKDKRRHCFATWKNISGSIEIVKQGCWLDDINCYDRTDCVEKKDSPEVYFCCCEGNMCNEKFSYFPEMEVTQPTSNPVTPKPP
Experiment: ELISA
# unit: OD | format: bare number

Some solved entries appear below for comparison.
binder	endpoint-unit	optical density
369_G01 (antibody, V domains shown) VH: EVQLLESGGGLVQPGGSLRLSCAASGFTFSSYSMNWVRQAPGKGLEWVSNINYNSGYKSYADSVKGRFTISRDNSKNTLYLQMNSLRAEDTAVYYCARSANWHDTALDYWGQGTLVTVSS VL: DIQMTQSPSSLSASVGDRVTITCRASQSILSYVNWYQQKPGKAPKLLIYAATSRASGVPSRFSGSGSGTDFTLTISSLQPEDFATYYCQQSYSSPLTFGGGTKVEIK	OD	3.57
373_A10 (antibody, V domains shown) VH: EVQLLESGGGLVQPGGSLRLSCAASGFTFSSYGMNWVRQAPGKGLEWVSGINYNSGYTSYADSVKGRFTISRDNSKNTLYLQMNSLRAEDTAVYYCARSANWHDTALDYWGQGTLVTVSS VL: DIQMTQSPSSLSASVGDRVTITCRASQSILSYLNWYQQKPGKAPKLVIYAATSRASGVPSRFSGSGSGTDFTLTISSLQPEDFATYYCQQSYDLPLTFGGGTKVEIK	OD	3.54
369_G06 (antibody, V domains shown) VH: EVQLLESGGGLVQPGGSLRLSCAASGFTFDSYGMNWVRQAPGKGLEWVAGINYNGGYTSYADSVKGRFTISRDNSKNTLYLQMNSLRAEDTAVYYCARSANWHDTALDYWGQGTLVTVSS VL: DIQMTQSPSSLSASVGDRVTITCRASQSILSYVNWYQQKPGKAPKLVIYAATSRASGVPSRFSGSGSGTDFTLTISSLQPEDFATYYCQQSYENPLTFGGGTKVEIK	OD	2.98

The record that follows has no optical density shown yet.
Please report the recorded optical density for 368_G12 (antibody, V domains shown) VH: EVQLLESGGGLVQPGGSLRLSCAASGFTFSSYGMNWVRQAPGKGLEWVASINYNSGYTGYADSVKGRFTISRDNSKNTLYLQMNSLRAEDTAVYYCARSANWHDTALDYWGQGTLVTVSS VL: DIQMTQSPSSLSASVGDRVTITCRASQSISSYVNWYQQKPGKAPKLVIYAVTSRASGVPSRFSGSGSGTDFTLTISSLQPEDFATYYCQQSYETPLTFGGGTKVEIK .
2.46
